# isoTOP-ABPP reactivity ratio at lysine Q9NTK5_K248 listing for each entry below
Tested Target: OLA1 Obg-like ATPase 1 (Homo sapiens)
Construct: endogenous in cells; host or cells: MDA-MB-231 (soluble fraction of lysate)
Procedure Details: competitive isoTOP-ABPP
Type: binding
Conditions: 50 uM, 231 sol, in vitro

Please give measured isoTOP-ABPP reactivity ratio at lysine Q9NTK5_K248 of the following entry: `COc1cc(CCC(=O)Oc2ccc([N+](=O)[O-])cc2[N+](=O)[O-])cc(OC)c1OC`
1.0

Please give measured isoTOP-ABPP reactivity ratio at lysine Q9NTK5_K248 of the following entry: `O=C(Oc1c(F)c(F)c(F)c(F)c1F)c1ccc2ccccc2n1`
1.0

Please give measured isoTOP-ABPP reactivity ratio at lysine Q9NTK5_K248 of the following entry: `Cn1cc(CC(=O)Oc2ccc([N+](=O)[O-])cc2[N+](=O)[O-])c2ccccc21`
1.0

====

Tested Target: ADK Adenosine kinase (Homo sapiens, UniProt P55263)
Construct: isoTOP-ABPP experiments performed in cell lysates (in vitro); endogenous in cells; host or cells: soluble proteome of human cancer cell lines (MDA-MB-231, Ramos, Jurkat)
Sequence (P55263 whole entry): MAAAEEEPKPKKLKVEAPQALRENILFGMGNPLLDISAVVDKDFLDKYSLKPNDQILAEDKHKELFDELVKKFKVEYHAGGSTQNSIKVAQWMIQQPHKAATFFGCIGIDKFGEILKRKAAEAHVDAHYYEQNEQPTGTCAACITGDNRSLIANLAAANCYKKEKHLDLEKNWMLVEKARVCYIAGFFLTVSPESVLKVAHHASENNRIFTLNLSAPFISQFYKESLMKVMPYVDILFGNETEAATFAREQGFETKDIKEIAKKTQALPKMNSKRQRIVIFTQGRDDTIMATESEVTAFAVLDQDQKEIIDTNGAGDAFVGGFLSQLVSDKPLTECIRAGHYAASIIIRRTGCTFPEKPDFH
Procedure Details: competitive isoTOP-ABPP
Format: binding
Conditions: P55263_K88; 50 uM, 231 sol, in vitro
Result Type: R value (DMSO/fragment) for probe 1 labeling
# respond with the number and nothing more

Please give measured R value (DMSO/fragment) for probe 1 labeling of the following entry: O=C(Oc1c(F)c(F)c(F)c(F)c1F)c1cc(C(F)(F)F)cc(C(F)(F)F)c1 [fragment 21]
0.8

Please give measured R value (DMSO/fragment) for probe 1 labeling of the following entry: O=C(Oc1c(F)c(F)c(F)c(F)c1F)C(c1ccccc1)c1ccccc1 [fragment 20, Pentafluorophenyl 2,2-diphenylacetate]
0.8

Please give measured R value (DMSO/fragment) for probe 1 labeling of the following entry: O=C(CCc1cn(-c2ccccc2)nc1-c1ccccc1)Oc1c(F)c(F)c(F)c(F)c1F [fragment 19]
0.8

Please give measured R value (DMSO/fragment) for probe 1 labeling of the following entry: Cn1cc(CC(=O)Oc2c(F)c(F)c(F)c(F)c2F)c2ccccc21 [fragment 22]
1.0

Turning now to a further record.
Please give measured R value (DMSO/fragment) for probe 1 labeling of the following entry: COc1cc(CCC(=O)Oc2c(F)c(F)c(F)c(F)c2F)cc(OC)c1OC [fragment 23]
0.7

====

# isoTOP-ABPP ratio (R) at liganded lysine P52815_K87 listing for each entry below
Tested Target: MRPL12 39S ribosomal protein L12, mitochondrial (Homo sapiens)
Construct: isoTOP-ABPP experiments performed in cell lysates (in vitro); endogenous in cells; host or cells: soluble proteome of human cancer cell lines (MDA-MB-231, Ramos, Jurkat)
Procedure Details: competitive isoTOP-ABPP
Type: binding
Conditions: 50 uM, in vitro, sol, 231
# respond with the number and nothing more

Consider the following illustrative entries.
Please give measured isoTOP-ABPP ratio (R) at liganded lysine P52815_K87 of the following entry: O=C(CC12CC3CC(CC(C3)C1)C2)Oc1ccc([N+](=O)[O-])cc1[N+](=O)[O-] [fragment 38]
0.9

Please give measured isoTOP-ABPP ratio (R) at liganded lysine P52815_K87 of the following entry: O=C(Oc1ccc([N+](=O)[O-])cc1[N+](=O)[O-])C(c1ccccc1)(c1ccccc1)c1ccccc1 [fragment 42, 2,4-Dinitrophenyl 2,2,2-triphenylacetate]
1.0

Please give measured isoTOP-ABPP ratio (R) at liganded lysine P52815_K87 of the following entry: CC(C)(C)OC(=O)NCCCC(=O)Oc1ccc([N+](=O)[O-])cc1[N+](=O)[O-] [fragment 41]
4.1

Please give measured isoTOP-ABPP ratio (R) at liganded lysine P52815_K87 of the following entry: O=C(Oc1ccc([N+](=O)[O-])cc1[N+](=O)[O-])c1ccc2ccccc2n1 [fragment 35]
0.9

Turning now to a further record.
Please give measured isoTOP-ABPP ratio (R) at liganded lysine P52815_K87 of the following entry: O=C(Oc1ccc([N+](=O)[O-])cc1[N+](=O)[O-])c1ccc(Oc2ccccc2)cc1 [fragment 39, 2,4-Dinitrophenyl 4-phenoxybenzoate]
1.1
